System: HepG2
PROCEDURE_DETAILS: cell viability relative to DMSO; higher = less toxic
CONDITION_DESCRIPTION: 72 h; 100 nM
ASSAY_READOUT: cell viability (%)

{"COMPOUND": "O=C(O)CCCO [SODIUM OXYBATE]", "TEST_SYSTEM": "HepG2", "ASSAY_READOUT": "cell viability", "DATA_VALUE": 92.8}
{"COMPOUND": "Nc1nccc(Oc2ccc(NC(=O)c3cn(COP(=O)(O)O)cc(-c4ccc(F)cc4)c3=O)cc2F)c1Cl", "TEST_SYSTEM": "HepG2", "ASSAY_READOUT": "cell viability", "DATA_VALUE": 108}
{"COMPOUND": "CC1CCN(CC[C@H]2CCCN2S(=O)(=O)c2cccc(O)c2)CC1", "TEST_SYSTEM": "HepG2", "ASSAY_READOUT": "cell viability", "DATA_VALUE": 103}
{"COMPOUND": "CC(=O)N1CCC(C(=O)N(CCCN2CCC(Cc3ccc(C(N)=O)cc3)CC2)c2ccc(C)c(Cl)c2)CC1 [TAK-220]", "TEST_SYSTEM": "HepG2", "ASSAY_READOUT": "cell viability", "DATA_VALUE": 94.1}
{"COMPOUND": "CC[C@@]1(O)C(=O)OCc2c1cc1n(c2=O)Cc2cc3c(CN(C)C)c(O)ccc3nc2-1 [topotecan]", "TEST_SYSTEM": "HepG2", "ASSAY_READOUT": "cell viability", "DATA_VALUE": 48.6}
{"COMPOUND": "CC(=O)CCCCn1c(=O)c2c(ncn2C)n(C)c1=O [pentoxifylline]", "TEST_SYSTEM": "HepG2", "ASSAY_READOUT": "cell viability", "DATA_VALUE": 110}
{"COMPOUND": "CN(C)C(=O)n1nnnc1Cc1ccc(-c2ccccc2)cc1", "TEST_SYSTEM": "HepG2", "ASSAY_READOUT": "cell viability", "DATA_VALUE": 110}
{"COMPOUND": "Cc1c(N)c(=O)n(-c2ccccc2)n1C [ampyrone]", "TEST_SYSTEM": "HepG2", "ASSAY_READOUT": "cell viability", "DATA_VALUE": 105}
{"COMPOUND": "Cc1cc(N)c2ccccc2[n+]1CCCCCCCCCC[n+]1c(C)cc(N)c2ccccc21 [dequalinium]", "TEST_SYSTEM": "HepG2", "ASSAY_READOUT": "cell viability", "DATA_VALUE": 92.7}

====

Test system: A549-ACE2
PROCEDURE_DETAILS: drug-induced phospholipidosis relative to tamoxifen; higher = more phospholipidosis
CONDITION_DESCRIPTION: 10 µM; 48 h
Tag: criterion met if measured drug-induced phospholipidosis is not below 20%, criterion not met if it is.

{"COMPOUND": "Cc1ccc(-n2nc(C(C)(C)C)cc2NC(=O)Nc2ccc(OCCN3CCOCC3)c3ccccc23)cc1", "TEST_SYSTEM": "A549-ACE2", "ANSWER_LABEL": "criterion not met"}
{"COMPOUND": "COc1ccc2nc3c(c(N)c2c1)CCCC3", "TEST_SYSTEM": "A549-ACE2", "ANSWER_LABEL": "criterion not met"}
{"COMPOUND": "COc1cc2ncnc(Nc3cccc(Cl)c3)c2cc1OC", "TEST_SYSTEM": "A549-ACE2", "ANSWER_LABEL": "criterion not met"}
{"COMPOUND": "C[C@H](Oc1cc(-c2cnn(C3CCNCC3)c2)cnc1N)c1c(Cl)ccc(F)c1Cl [crizotinib-(S)]", "TEST_SYSTEM": "A549-ACE2", "ANSWER_LABEL": "criterion met"}
{"COMPOUND": "CC(=O)[O-].CC(=O)[O-].N.NC1CCCCC1.[Cl-].[Cl-].[Pt+4]", "TEST_SYSTEM": "A549-ACE2", "ANSWER_LABEL": "criterion not met"}
{"COMPOUND": "NC1(c2ccc(-c3nc4ccn5c(=O)[nH]nc5c4cc3-c3ccccc3)cc2)CCC1", "TEST_SYSTEM": "A549-ACE2", "ANSWER_LABEL": "criterion met"}
